Experiment: Pharmacokinetic evaluation in SD rats
Format: in vivo
Conditions: Sprague-Dawley (SD), rat; male SD rats, iv (tail vein), 1 mg/kg, plasma
Experimental: 18 male SD rats, eight weeks old, were purchased from Vital River Laboratory Animal Technology Co., Ltd., and adapted for 3 days before the experiments were started. The SD rats were randomized into 3 groups, fasted one day before administration but allowed access to water. […] The major pharmacokinetic parameters were analyzed using the software WinNonlin 6.3 at the non-compartment mode.
test.readout: AUC(0-inf)
Field note: include the unit after the figure.

Quick check: AUC(0-inf) of O=C(Nc1ccc(CNC[C@H](O)c2ccc(O)c3[nH]c(=O)ccc23)cc1)OCC1CCN(C(=O)CCN2CCC(OC(=O)Nc3ccccc3-c3ccccc3)CC2)CC1 [Compound 2, ditrifluoroacetic acid] ?
9.27 ng·h/mL

====

Hi there, I'd appreciate the recorded PenH Inhibition (%) 24 h for every entry that follows.
Tested on: methacholine-induced bronchoconstriction in guinea pigs
Assay: Inhibition against methacholine-induced bronchoconstriction in guinea pigs (PenH, whole-body plethysmograph)
Assay type: in vivo
Conditions: intratracheal, 0.3 nmol per animal, 24 h after administration, 3 mg/ml methacholine
Method: 8-week-old guinea pigs (all male) were purchased from Vital River Laboratory Animal Technology Co., Ltd., and adapted for 3 days before the experiments were started. […] 4 hours and 24 hours after administration, the enhanced pauses (PenH) of the guinea pigs were measured in a whole-body plethysmograph (DSI; GS220A12-R7B). 3 mg/ml methacholine (Mch) was administrated by nebulization for 36 sec, and data was recorded over 7 min. The average of PenH was calculated (see J Pharmacol Exp Ther 345:260-270). […]
Numbers only, in %.

Worked cases, PenH Inhibition (%) 24 h given:
O=C(Nc1ccc(CNC[C@H](O)c2ccc(O)c3[nH]c(=O)ccc23)cc1F)OCC1CCN(C(=O)CCN2CCC(OC(=O)Nc3ccccc3-c3ccccc3)CC2)CC1    55.8
COc1cc(NC(=O)OC[C@H]2CCN(C(=O)CCN3CCC(OC(=O)Nc4ccccc4-c4ccccc4)CC3)C2)c(Cl)cc1CNC[C@H](O)c1ccc(O)c2[nH]c(=O)ccc12    78.6
O=C(Nc1ccc(CNC[C@H](O)c2ccc(O)c3[nH]c(=O)ccc23)cc1)OCC1CCN(C(=O)CCN2CCC(OC(=O)Nc3ccccc3-c3ccccc3)CC2)CC1    53.8

API: value(readout=PenH Inhibition (%) 24 h, system=methacholine-induced bronchoconstriction in guinea pigs) for record `O=C(Nc1ccc(CNC[C@H](O)c2ccc(O)c3[nH]c(=O)ccc23)c(F)c1)OCC1CCN(C(=O)CCN2CCC(OC(=O)Nc3ccccc3-c3ccccc3)CC2)CC1`
45.3

====

Hi there, I'd appreciate the recorded pIC50 for every entry that follows.
target: UniProt P20309; assay: Inhibitory activity against human muscarine receptor M3 (aequorin luminescence in CHO cells, acetylcholine challenge); details: CHO cells expressing hM3 and apo-Aequorin; acetylcholine chloride 112.92 nM
Sequence (P20309 whole entry): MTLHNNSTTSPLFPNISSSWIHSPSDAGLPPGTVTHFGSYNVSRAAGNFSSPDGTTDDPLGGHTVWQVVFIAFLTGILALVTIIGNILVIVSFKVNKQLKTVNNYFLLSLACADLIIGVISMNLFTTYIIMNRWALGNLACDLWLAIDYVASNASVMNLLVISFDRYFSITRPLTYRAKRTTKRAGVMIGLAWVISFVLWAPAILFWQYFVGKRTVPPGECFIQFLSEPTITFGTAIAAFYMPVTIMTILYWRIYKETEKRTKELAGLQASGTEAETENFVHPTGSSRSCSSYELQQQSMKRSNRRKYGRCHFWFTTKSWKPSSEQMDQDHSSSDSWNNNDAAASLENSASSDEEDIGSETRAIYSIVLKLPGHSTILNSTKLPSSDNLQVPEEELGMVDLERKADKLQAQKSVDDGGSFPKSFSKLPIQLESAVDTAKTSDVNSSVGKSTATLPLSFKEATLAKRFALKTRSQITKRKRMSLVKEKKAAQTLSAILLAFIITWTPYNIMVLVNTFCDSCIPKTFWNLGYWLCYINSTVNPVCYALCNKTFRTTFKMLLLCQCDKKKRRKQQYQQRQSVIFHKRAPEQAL
Give bare numbers, as −log10 of the molar value.

Worked cases, pIC50 given:
O=C(CC1CCN(C(=O)CCN2CCC(OC(=O)Nc3ccccc3-c3ccccc3)CC2)CC1)Nc1ccc(CNC[C@H](O)c2ccc(O)c3[nH]c(=O)ccc23)cc1    8.43
COc1cc(NC(=O)OC[C@H]2CCN(C(=O)CCN3CCC(OC(=O)Nc4ccccc4-c4ccccc4)CC3)C2)c(Cl)cc1CNC[C@H](O)c1ccc(O)c2[nH]c(=O)ccc12    9.05
COc1cc(NC(=O)OC[C@@H]2CCN(C(=O)CCN3CCC(OC(=O)Nc4ccccc4-c4ccccc4)CC3)C2)c(Cl)cc1CNC[C@H](O)c1ccc(O)c2[nH]c(=O)ccc12    8.65

// input: 3 compounds below; output: pIC50 for each
1. O=C(Nc1ccc(CNC[C@H](O)c2ccc(O)c3[nH]c(=O)ccc23)cc1)OCC1CCN(C(=O)CCN2CCC(OC(=O)Nc3ccccc3-c3ccccc3)CC2)CC1
2. CN(CCNC[C@H](O)c1ccc(O)c2[nH]c(=O)ccc12)C(=O)C1CCN(C(=O)CCN2CCC(OC(=O)Nc3ccccc3-c3ccccc3)CC2)CC1
3. O=C(Nc1ccc(CNC[C@H](O)c2ccc(O)c3[nH]c(=O)ccc23)c(F)c1)OCC1CCN(C(=O)CCN2CCC(OC(=O)Nc3ccccc3-c3ccccc3)CC2)CC1

1. 8.77
2. 8.19
3. 8.48

Sourced from patent US20210205291A1
